Target: Cy5-labelled Mcl1 (amino acids 171-321) C286S protein (UniProtKB Q07820) (Homo sapiens (Human), UniProt Q07820, C286S)
Sequence (Q07820 171-321 C286S): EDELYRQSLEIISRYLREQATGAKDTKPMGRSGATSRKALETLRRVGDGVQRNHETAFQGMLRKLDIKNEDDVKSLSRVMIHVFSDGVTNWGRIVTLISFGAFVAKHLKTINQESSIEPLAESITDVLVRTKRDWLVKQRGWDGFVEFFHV
Experiment: Inhibition of Mcl-1 by the fluorescence quenching assay (Example A, Method B)
Format: binding
Conditions: Ki determined from IC50
pKi: −log10 of the molar value.
Experimental Readout: pKi

- Smiles Representation: "Cc1c(Cl)cccc1N[C@]1(C(=O)O)CC[C@]2(CC1)c1ccc(F)cc1CN2C[C@@H](C)COc1ccnc2c1[C@H](C)CCC2"
  pKi: 9.23
- Smiles Representation: "Cc1cccc2c1C=C(Br)[C@]21CC[C@](Nc2cccc(Cl)c2)(C(=O)O)CC1"
  pKi: 7.04

a = Cc1ccc2c(c1)CN(C[C@@H](C)COc1ccnc3c1[C@H](C)CCC3)[C@]21CC[C@](Nc2ccc(F)c(Cl)c2)(C(=O)O)CC1
b = Cc1c(Cl)cccc1N[C@]1(C(=O)O)CC[C@@]2(CC1)c1cc3c(cc1CN2C[C@@H](C)COc1ccnc2c1[C@H](C)CCC2)OCO3
c = Cc1c(Cl)cccc1N[C@]1(C(=O)O)CC[C@]2(CC1)c1cc3c(cc1CN2C[C@@H](C)COc1ccnc2c1[C@H](C)CCC2)OCO3
d = O=C(O)[C@]1(Nc2cccc(C(F)(F)F)c2)CC[C@]2(CC1)C(Br)=Cc1ccccc12
Order the entries by their reported pKi, beginning at the minimum. Please reply with the labels ordered as requested. Many thanks. d, b, c, a

###

Target: Mcl-1 protein (UniProtKB Q07820) (Homo sapiens (Human), UniProt Q07820)
Sequence (Q07820 whole entry): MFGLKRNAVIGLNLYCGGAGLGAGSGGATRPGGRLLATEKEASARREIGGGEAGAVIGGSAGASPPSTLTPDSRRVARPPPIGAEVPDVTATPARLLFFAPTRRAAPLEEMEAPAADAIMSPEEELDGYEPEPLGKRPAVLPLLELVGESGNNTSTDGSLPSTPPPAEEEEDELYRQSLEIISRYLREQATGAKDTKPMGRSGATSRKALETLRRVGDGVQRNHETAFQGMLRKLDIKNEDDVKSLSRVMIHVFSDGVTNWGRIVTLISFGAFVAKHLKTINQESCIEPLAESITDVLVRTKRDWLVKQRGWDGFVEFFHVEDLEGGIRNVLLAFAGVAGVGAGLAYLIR
Assay: Inhibition of Mcl-1 by the fluorescence polarisation assay (Example A, Method A)
Details: fluorescence polarization assay
pKi: −log10 of the molar value.
Experimental Readout: pKi

Study these solved cases before continuing.
- Compound: "O=C(O)[C@]1(Nc2cccc(Cl)c2)CC[C@@]2(CC1)c1ccccc1CC2c1ccccc1 (single isomer, unassigned) [Example 327]"
  Recorded Number: 5.15
- Compound: "CC1=C(C)[C@]2(CC[C@](Nc3cccc(Br)c3)(C(=O)O)CC2)c2ccccc21"
  Recorded Number: 6.52
- Compound: "COc1ccc(C2Cc3ccccc3[C@]23CC[C@@](Nc2cccc(Cl)c2)(C(=O)O)CC3)c(Cl)c1 (single isomer, unassigned) [Example 269]"
  Recorded Number: 4.95

A = COc1ccc2c(c1)[C@]1(CC[C@@](Nc3cccc(Br)c3)(C(=O)O)CC1)C1(CCCC1)C2
B = O=C(O)[C@]1(Nc2cccc(Cl)c2)CC[C@]2(CC1)C(CCOc1ccnc(F)c1)=Cc1ccccc12
Sorting by pKi in descending order, would A or B appear first? The response must carry the label of the picked entry. B

1 = COc1cccc(N[C@]2(C(=O)O)CC[C@@]3(CC2)C(Br)=Cc2ccccc23)c1
2 = O=C(O)[C@]1(Nc2cccc(Cl)c2)CC[C@@]2(CC1)c1ccccc1CC2CCCOc1ccc2c(c1)OCO2 (stereo partly shown)
Sorting by pKi in descending order, would 1 or 2 appear first? Your answer should be the label of the entry you select. 2
(2: 6.41, 1: 5.39)

###

Test system: H929 multiple myeloma tumor line
Assay: In vitro cytotoxicity, MTT assay (Example B, Method A)
Format: cell-based
Conditions: H929 cells, 48 hours exposure, read-out: C50
Experimental Readout: pIC50
Remember the convention: pIC50 equals -log10 of concentration in molar.

Recorded pIC50, per entry:
- Compound: "C[C@@H](COc1ccnc2c1C(F)CCC2)C[C@H]1Cc2ccccc2[C@]12CC[C@@](Nc1cccc(Cl)c1)(C(=O)O)CC2 (single isomer, unassigned) [Example 686]"
  pIC50: 6.35
- Compound: "C[C@@H]1CCCc2nccc(OCC(CF)CC3=Cc4ccccc4[C@]34CC[C@@](Nc3cccc(Cl)c3)(C(=O)O)CC4)c21 (single isomer, unassigned) [Example 515]"
  pIC50: 5.62

pIC50 for H929 multiple myeloma tumor line with input Cc1cc(OC[C@H](C)C[C@H]2Cc3ccccc3[C@]23CC[C@@](Nc2cccc(Cl)c2)(C(=O)O)CC3)c2c(n1)CCCC2C (single isomer, unassigned) [Example 663] equals 5.46

Reading of pIC50 for C[C@@H](COc1ccnc2c1[C@H](C)CC[C@H]2O)C[C@H]1Cc2ccccc2[C@]12CC[C@@](Nc1cccc(Cl)c1)(C(=O)O)CC2 [Example 673] with H929 multiple myeloma tumor line: 6.68

I looked up CC(C)C(COc1ccncc1)CC1Cc2ccccc2[C@]12CC[C@@](Nc1cccc(Cl)c1)(C(=O)O)CC2 (single isomer, unassigned) [Example 535] and its pIC50 for H929 multiple myeloma tumor line was 4.52

###

Molecular target: Cy5-labelled Mcl1 (amino acids 171-321) C286S protein (UniProtKB Q07820) (Homo sapiens (Human), UniProt Q07820, C286S)
Test: Inhibition of Mcl-1 by the fluorescence quenching assay (Example A, Method B)
Assay type: binding
Experimental Readout: Ki (nM)

- Molecule: "C[C@H](C[C@H]1Cc2ccccc2[C@]12CC[C@@](Nc1cccc(Cl)c1)(C(=O)O)CC2)[C@@H](C)Oc1ccnc2c1CCC2 [Example 616]"
  Measure Unit: "nM"
  Recorded Number: 12.1
- Molecule: "CCOc1cc2c(cc1C)CC(C[C@@H](C)COc1ccnc3c1[C@H](C)CCC3)[C@]21CC[C@](Nc2cccc(Cl)c2)(C(=O)O)CC1 (stereo partly drawn) [Example 824]"
  Measure Unit: "nM"
  Recorded Number: 0.329
- Molecule: "CC(C)c1cnccc1OC[C@H](C)C[C@H]1Cc2ccccc2[C@]12CC[C@@](Nc1cccc(Cl)c1)(C(=O)O)CC2 [Example 587]"
  Measure Unit: "nM"
  Recorded Number: 3.93
- Molecule: "CC(CC1Cc2ccccc2[C@]12CC[C@@](Nc1cccc(Cl)c1)(C(=O)O)CC2)C1CCC(=O)CC1 (single isomer, unassigned) [Example 573]"
  Measure Unit: "nM"
  Recorded Number: 806
- Molecule: "CC(=O)c1ccc2c(c1)[C@]1(CC[C@@](Nc3cccc(Cl)c3)(C(=O)O)CC1)[C@@H](C[C@@H](C)COc1ccnc3c1[C@H](C)CCC3)C2 [Example 858]"
  Measure Unit: "nM"
  Recorded Number: 0.0699

P = O=C(O)[C@]1(Nc2cccc(Cl)c2)CC[C@@]2(CC1)c1ccccc1CC2CC(COCCN1CCOCC1)COc1ccnc2c1CCC2 (mixture of isomers) [Example 496]
Q = C[C@@H](COc1ccnc2c1CC(C)(C)C2)C[C@H]1Cc2ccccc2[C@]12CC[C@@](Nc1cccc(Cl)c1)(C(=O)O)CC2 [Example 611]
Please compare: P and Q . Report which one has the smaller Ki value. Answer by stating the label of the chosen item. P

I = C[C@@H](COc1ccnc2c1[C@H](C)CCC2)C[C@H]1Cc2cc3c(cc2[C@]12CC[C@@](Nc1cccc(Cl)c1)(C(=O)O)CC2)OCC(F)(F)CO3 [Example 996]
II = C[C@@H](COc1ccnc2ccn(C)c12)C[C@H]1Cc2ccccc2[C@]12CC[C@@](Nc1cccc(Cl)c1)(C(=O)O)CC2 [Example 619]
III = C[C@@H](COc1c(Cl)cnc2c1[C@H](C)CCC2)C[C@H]1Cc2cc3c(cc2[C@]12CC[C@@](Nc1ccc(F)c(Cl)c1)(C(=O)O)CC2)OCO3 [Example 886]
Order the records by Ki, with each subsequent value no larger than the one before. Output spec: labels arranged per the requested ranking. II, III, I
(II: 9.28 nM, III: 0.145 nM, I: 0.028 nM)

1 = C[C@@H](COc1ccnc2c1[C@@H](C)CCC2)C[C@H]1Cc2ccccc2[C@]12CC[C@@](Cc1cccc(Cl)c1)(C(=O)O)CC2 [Example 719]
2 = CC[C@H]1COc2cc3c(cc2O1)C[C@H](C[C@@H](C)COc1ccnc2c1[C@H](C)CCC2)[C@]31CC[C@](Nc2cccc(Cl)c2)(C(=O)O)CC1 [Example 978]
Sorting ascending by Ki, which comes first: 1 or 2 ? Identify your selection by its label. 2
(2: 0.0831 nM, 1: 1450 nM)

1 = Cc1ccc2[nH]ccc2c1OCCC[C@@H]1Cc2ccccc2[C@]12CC[C@@](Nc1cccc(Cl)c1)(C(=O)O)CC2 [Example 489]
2 = C[C@@H](COc1ccnc2c1[C@H](C)CCC2)C[C@@H]1Cc2ccc(OCC3CC3)cc2[C@]12CC[C@@](Nc1cccc(Cl)c1)(C(=O)O)CC2 [Example 790]
Name the one with the greater Ki value, either 1 or 2 as given. Lab log: write the label of the selected item as the result. 1

###

System: H929 multiple myeloma tumor line
Assay: In vitro cytotoxicity, MTT assay (Example B, Method A)
Assay type: cell-based
Conditions: H929 cells, 48 hours exposure, read-out: C50
Experimental Readout: IC50 (µM)
# number only, unit µM dropped from output

Worked examples, 2 molecules total:
- Molecule: "CC(C)C(COc1cccnc1)CC1Cc2ccccc2[C@]12CC[C@@](Nc1cccc(Cl)c1)(C(=O)O)CC2 (single isomer, unassigned) [Example 528]"
  Experimental Readout: "IC50"
  Recorded Number: 30
- Molecule: "CC(C)C(COc1cccnc1)CC1Cc2ccccc2[C@]12CC[C@@](Nc1cccc(Cl)c1)(C(=O)O)CC2 (single isomer, unassigned) [Example 527]"
  Experimental Readout: "IC50"
  Recorded Number: 16.4

Now examine the next entry.
I looked up CC(C)C(COc1ccccc1)CC1Cc2ccccc2[C@]12CC[C@@](Nc1cccc(Cl)c1)(C(=O)O)CC2 (single isomer, unassigned) [Example 529] and its IC50 for H929 multiple myeloma tumor line was 25.3

Hello, the source for this data is patent US20240150293A1, in case you need it.
